target: Voltage-dependent L-type calcium channel subunit alpha-1C (Rattus norvegicus); test: Inhibition of L-type calcium channel measured using whole-cell patch clamp in rat ventricular myocytes; type: functional, cell-based, Heart, Ventricular myocyte; parameters: ca sol conc 2 mM, temp 36-37 C
assay_endpoint: IC50 (µM)
Answers are plain numbers, in µM.

Give recorded IC50 with Voltage-dependent L-type calcium channel subunit alpha-1C (Rattus norvegicus) for the following compound: "CCCCC/C=C\C/C=C\C/C=C\C/C=C\CCCC(=O)O"
8.5

----------
target: Voltage-dependent L-type calcium channel subunit alpha-1C (Rattus norvegicus, UniProt P22002); test: Inhibition of L-type calcium channel measured using whole-cell patch clamp in rat ventricular myocytes; format: functional, cell-based, Heart, Ventricular myocyte; parameters: ca sol conc 2 mM, temp 22-23 C
Sequence (P22002 whole entry): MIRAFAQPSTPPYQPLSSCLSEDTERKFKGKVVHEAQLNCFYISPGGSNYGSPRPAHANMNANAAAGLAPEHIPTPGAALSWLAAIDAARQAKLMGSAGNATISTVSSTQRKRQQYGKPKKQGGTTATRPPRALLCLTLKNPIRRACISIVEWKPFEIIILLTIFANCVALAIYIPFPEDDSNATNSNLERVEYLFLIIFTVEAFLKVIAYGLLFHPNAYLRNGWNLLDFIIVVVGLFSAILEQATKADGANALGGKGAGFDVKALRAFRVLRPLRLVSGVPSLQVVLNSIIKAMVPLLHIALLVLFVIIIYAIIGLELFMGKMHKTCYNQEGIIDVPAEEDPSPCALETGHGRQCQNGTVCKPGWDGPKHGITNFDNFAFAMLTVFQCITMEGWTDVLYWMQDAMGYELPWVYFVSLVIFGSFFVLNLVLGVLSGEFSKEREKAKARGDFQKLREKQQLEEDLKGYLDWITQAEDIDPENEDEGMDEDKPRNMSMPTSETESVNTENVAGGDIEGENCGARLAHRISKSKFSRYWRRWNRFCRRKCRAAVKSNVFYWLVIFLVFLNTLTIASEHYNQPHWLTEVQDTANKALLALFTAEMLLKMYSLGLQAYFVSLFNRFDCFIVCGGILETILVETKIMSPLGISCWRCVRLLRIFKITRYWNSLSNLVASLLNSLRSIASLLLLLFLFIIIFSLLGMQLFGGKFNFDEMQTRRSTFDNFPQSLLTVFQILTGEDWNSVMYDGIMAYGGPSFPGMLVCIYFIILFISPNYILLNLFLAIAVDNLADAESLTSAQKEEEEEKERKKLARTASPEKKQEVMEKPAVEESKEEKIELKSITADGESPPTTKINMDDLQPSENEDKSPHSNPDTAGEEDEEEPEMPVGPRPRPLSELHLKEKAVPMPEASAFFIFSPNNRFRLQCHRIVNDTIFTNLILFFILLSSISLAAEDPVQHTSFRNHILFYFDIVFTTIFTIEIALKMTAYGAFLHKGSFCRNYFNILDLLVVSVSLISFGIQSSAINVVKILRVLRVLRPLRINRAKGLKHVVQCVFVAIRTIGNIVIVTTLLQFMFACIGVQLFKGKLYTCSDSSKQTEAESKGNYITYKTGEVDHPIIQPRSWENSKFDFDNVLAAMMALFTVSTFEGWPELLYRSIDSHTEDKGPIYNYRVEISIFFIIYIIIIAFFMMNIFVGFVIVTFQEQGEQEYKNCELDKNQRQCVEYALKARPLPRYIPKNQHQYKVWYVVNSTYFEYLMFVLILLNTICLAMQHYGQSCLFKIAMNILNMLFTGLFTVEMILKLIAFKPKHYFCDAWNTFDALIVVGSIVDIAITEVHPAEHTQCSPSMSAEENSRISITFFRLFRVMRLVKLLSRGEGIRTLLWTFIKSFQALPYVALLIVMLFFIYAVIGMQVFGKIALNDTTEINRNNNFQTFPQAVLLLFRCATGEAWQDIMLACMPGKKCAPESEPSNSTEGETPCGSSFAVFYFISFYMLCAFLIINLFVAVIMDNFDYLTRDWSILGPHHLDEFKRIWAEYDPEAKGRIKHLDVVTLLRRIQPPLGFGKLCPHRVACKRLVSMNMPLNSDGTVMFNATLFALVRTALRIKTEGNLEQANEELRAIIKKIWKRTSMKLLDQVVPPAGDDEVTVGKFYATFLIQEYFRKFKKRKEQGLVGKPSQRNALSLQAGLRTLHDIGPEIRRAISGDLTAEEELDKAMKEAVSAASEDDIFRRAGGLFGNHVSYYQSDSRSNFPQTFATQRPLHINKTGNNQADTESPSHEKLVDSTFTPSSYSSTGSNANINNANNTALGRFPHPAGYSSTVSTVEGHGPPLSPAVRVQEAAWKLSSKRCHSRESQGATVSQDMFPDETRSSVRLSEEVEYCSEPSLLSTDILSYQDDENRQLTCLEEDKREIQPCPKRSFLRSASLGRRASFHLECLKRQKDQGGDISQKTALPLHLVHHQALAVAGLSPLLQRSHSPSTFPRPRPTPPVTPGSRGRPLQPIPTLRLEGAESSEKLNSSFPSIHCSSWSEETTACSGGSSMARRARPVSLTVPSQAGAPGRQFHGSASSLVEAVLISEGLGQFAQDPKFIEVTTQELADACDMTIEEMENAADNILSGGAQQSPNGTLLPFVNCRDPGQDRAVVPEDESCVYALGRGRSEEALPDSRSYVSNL
assay_endpoint: pIC50
Answers are plain numbers, as −log10 of the molar value.

// query pIC50 value for entry CCN(CC)CCCC(C)Nc1c2ccc(Cl)cc2nc2ccc(OC)cc12 (stereo unspecified)
5.28

----------
molecular target: Voltage-dependent L-type calcium channel subunit alpha-1C (Homo sapiens, UniProt Q13936); test: Inhibition of L-type calcium channel measured using […] ovary cells heterologically expressing alpha-1C subunit; type: functional, cell-based, Cricetulus griseus, CHO; set-up: ca sol conc 0 mM, temp room
Sequence (Q13936 whole entry): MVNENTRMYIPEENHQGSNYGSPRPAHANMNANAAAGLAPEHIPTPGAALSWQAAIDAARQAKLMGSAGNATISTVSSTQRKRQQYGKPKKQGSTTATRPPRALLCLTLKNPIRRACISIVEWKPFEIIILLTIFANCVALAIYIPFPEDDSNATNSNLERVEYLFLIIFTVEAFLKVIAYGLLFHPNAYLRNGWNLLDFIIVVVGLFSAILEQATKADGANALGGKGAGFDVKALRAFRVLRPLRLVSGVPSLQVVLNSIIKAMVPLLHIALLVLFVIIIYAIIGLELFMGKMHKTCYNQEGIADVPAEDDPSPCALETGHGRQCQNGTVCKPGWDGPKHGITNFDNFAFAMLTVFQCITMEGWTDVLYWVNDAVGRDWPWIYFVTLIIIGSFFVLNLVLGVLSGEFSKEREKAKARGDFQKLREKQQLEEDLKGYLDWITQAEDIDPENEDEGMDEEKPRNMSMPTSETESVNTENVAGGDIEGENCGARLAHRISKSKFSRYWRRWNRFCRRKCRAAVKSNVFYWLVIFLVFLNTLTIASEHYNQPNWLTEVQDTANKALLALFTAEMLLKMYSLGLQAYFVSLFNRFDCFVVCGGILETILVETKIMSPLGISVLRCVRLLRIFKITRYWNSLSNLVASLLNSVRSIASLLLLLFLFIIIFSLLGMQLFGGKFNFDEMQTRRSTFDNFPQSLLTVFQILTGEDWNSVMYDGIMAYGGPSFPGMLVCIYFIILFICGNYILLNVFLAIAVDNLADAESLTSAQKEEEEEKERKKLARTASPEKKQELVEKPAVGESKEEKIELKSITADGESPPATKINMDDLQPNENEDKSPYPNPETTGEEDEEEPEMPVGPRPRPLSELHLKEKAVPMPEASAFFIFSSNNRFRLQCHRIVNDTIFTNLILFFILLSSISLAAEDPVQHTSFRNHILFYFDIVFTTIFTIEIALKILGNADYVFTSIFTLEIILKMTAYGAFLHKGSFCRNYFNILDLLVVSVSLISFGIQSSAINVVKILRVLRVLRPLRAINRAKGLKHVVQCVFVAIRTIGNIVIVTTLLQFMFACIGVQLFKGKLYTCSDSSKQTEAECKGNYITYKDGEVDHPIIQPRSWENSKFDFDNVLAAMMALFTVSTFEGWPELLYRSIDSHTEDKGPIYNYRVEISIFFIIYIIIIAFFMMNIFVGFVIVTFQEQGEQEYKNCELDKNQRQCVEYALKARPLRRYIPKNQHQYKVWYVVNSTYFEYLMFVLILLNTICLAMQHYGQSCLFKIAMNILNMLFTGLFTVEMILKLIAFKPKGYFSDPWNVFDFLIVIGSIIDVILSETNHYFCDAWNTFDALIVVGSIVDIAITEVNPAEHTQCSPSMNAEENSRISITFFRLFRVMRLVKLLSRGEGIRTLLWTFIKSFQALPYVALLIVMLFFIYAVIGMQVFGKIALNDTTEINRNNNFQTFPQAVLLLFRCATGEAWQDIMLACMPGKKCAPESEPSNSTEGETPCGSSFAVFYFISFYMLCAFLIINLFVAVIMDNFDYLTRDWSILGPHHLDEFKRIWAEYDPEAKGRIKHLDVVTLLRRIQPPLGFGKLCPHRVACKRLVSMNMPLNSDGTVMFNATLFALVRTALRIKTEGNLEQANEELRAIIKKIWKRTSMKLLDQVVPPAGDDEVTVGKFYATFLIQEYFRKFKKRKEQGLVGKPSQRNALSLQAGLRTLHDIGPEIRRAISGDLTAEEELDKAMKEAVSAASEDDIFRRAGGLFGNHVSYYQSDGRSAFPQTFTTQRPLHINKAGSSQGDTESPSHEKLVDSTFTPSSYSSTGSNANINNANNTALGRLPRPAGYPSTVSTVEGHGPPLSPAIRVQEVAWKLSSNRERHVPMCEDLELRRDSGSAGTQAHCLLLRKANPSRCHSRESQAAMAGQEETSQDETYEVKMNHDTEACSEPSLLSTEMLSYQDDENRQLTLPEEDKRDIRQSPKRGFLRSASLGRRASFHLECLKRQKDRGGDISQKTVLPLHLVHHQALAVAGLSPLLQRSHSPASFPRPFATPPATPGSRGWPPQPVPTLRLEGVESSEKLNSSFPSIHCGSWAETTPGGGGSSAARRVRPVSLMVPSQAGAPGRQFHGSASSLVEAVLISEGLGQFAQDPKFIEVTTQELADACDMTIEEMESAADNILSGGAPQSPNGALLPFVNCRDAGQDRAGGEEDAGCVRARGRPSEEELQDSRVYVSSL
assay_endpoint: pIC50
One number for each entry, as −log10 of the molar value.

// query pIC50 value for entry CC1=C(C(=O)OCCCCCCCCCC[N+](C)(C)C)C(c2cccc3nonc23)C(C(=O)OC(C)C)=C(C)N1 (stereo unspecified)
7.15

----------
target: Voltage-dependent L-type calcium channel subunit alpha-1C (Cavia porcellus, UniProt O35505); experiment: Inhibition of L-type calcium channel measured using whole-cell patch clamp in guinea pig ventricular myocytes; type: functional, cell-based, Heart, Ventricular myocyte; parameters: ca sol conc 1 mM, temp room
assay_endpoint: pIC50
Answers are plain numbers, as −log10 of the molar value.

// query pIC50 value for entry CCCC(=O)OCOC(=O)C1=C(C)NC(C)=C(C(=O)OC)C1c1cccc(Cl)c1Cl (stereo unspecified)
7.10

----------
Exercise: state measured IC50 for each of the compounds provided.
target: Voltage-dependent L-type calcium channel subunit alpha-1C (Cavia porcellus, UniProt O35505); assay: Inhibition of L-type calcium channel measured using whole-cell patch clamp in guinea pig ventricular myocytes; assay type: functional, cell-based, Heart, Ventricular myocyte; parameters: ca sol conc 1.8 mM, temp 20-22 C
Numbers only, in µM.

compound | IC50, µM
COc1cc(N)c(Cl)cc1C(=O)NC1CCN(CCCOc2ccc(F)cc2)CC1OC (stereo not drawn) [CISAPRIDE] | 16
Cc1cccc(CCN2CCC(C(=O)c3ccc(NS(C)(=O)=O)cc3)CC2)n1 | 441

With those in mind, consider the next compound.
// query IC50 value for entry CC(C)COCC(CN(Cc1ccccc1)c1ccccc1)N1CCCC1 (stereo not drawn) [BEPRIDIL]
0.5

----------
biological target: Voltage-dependent L-type calcium channel subunit alpha-1C (Cavia porcellus, UniProt O35505); assay: Inhibition of L-type calcium channel measured using whole-cell patch clamp in guinea pig ventricular myocytes; format: functional, cell-based, Heart, Ventricular myocyte; parameters: ca sol conc 0 mM, temp 36 C
assay_endpoint: IC50 (µM)
Numbers only, in µM.

// query IC50 value for entry "Cc1cccc(C)c1N(CCCc1cccnc1)C(=O)[C@@H](C)N"
55

----------
biological target: Voltage-dependent L-type calcium channel subunit alpha-1C (Cavia porcellus); assay: Inhibition of L-type calcium channel measured using whole-cell patch clamp in guinea pig ventricular myocytes
assay_endpoint: IC50 (nM)
Answers are plain numbers, in nM.

// query IC50 value for entry CCOC(=O)C1=C(COCCN)NC(C)=C(C(=O)OC)C1c1ccccc1Cl (stereo unspecified)
570

----------
biological target: Voltage-dependent L-type calcium channel subunit alpha-1C (Cavia porcellus, UniProt O35505); experiment: Inhibition of L-type calcium channel measured using whole-cell patch clamp in guinea pig ventricular myocytes; type: functional, cell-based, Heart, Ventricular myocyte; set-up: ca sol conc 2 mM, temp 22-26 C
assay_endpoint: IC50 (µM)
Answers are plain numbers, in µM.

// query IC50 value for entry CC(N)CCCC(C)(C)O (stereo unspecified) [HEPTAMINOL]
15.3

----------
target: Voltage-dependent L-type calcium channel subunit alpha-1C (Cavia porcellus, UniProt O35505); test: Inhibition of L-type calcium channel measured using whole-cell patch clamp in guinea pig ventricular myocytes; format: functional, cell-based, Heart, Ventricular myocyte; design: ca sol conc 0 mM, temp 20-25 C
assay_endpoint: IC50 (nM)
Give bare numbers, in nM.

// query IC50 value for entry COCCOC(=O)C1=C(C)NC(C)=C(C(=O)OC(C)C)C1c1cccc([N+](=O)[O-])c1 (stereo unspecified) [NIMODIPINE]
300

----------
Exercise: state measured IC50 for each of the compounds provided.
target: Voltage-dependent L-type calcium channel subunit alpha-1C (Homo sapiens, UniProt Q13936); assay: Inhibition of L-type calcium channel measured using […] kidney cells heterologically expressing alpha-1C subunit; type: functional, cell-based, HEK293; parameters: ca sol conc 0 mM, temp 21-24 C
Give bare numbers, in nM.

// known answers, use as guide
smiles | endpoint_unit | IC50
Clc1ccccc1C(c1ccccc1)(c1ccccc1)n1ccnc1 | nM | 590
CC(C)Cn1c(=O)n(C)c(=O)c2[nH]cnc21 | nM | 466000

// query IC50 value for entry "C[C@]12CC[C@H]3[C@@H](CCC4=CC(=O)CC[C@@]43C)[C@@H]1CC[C@@H]2O"
34

----------
molecular target: Voltage-dependent L-type calcium channel subunit alpha-1C (Homo sapiens, UniProt Q13936); assay: Inhibition of L-type calcium channel measured using […] kidney cells heterologically expressing alpha-1C subunit; assay type: functional, cell-based, HEK293; design: ca sol conc 0 mM, temp room
assay_endpoint: IC50 (µM)
Give bare numbers, in µM.

compound | system_tested | endpoint_unit | IC50
FC(F)(F)C(Cl)Br (configuration not stated) | Voltage-dependent L-type calcium channel subunit alpha-1C (Homo sapiens, UniProt Q13936) | µM | 1800

With those in mind, consider the next compound.
// query IC50 value for entry "CC[C@H](CO)Nc1nc(NCc2ccccc2)c2ncn(C(C)C)c2n1"
23.4

----------
target: Voltage-dependent L-type calcium channel subunit alpha-1C (Homo sapiens, UniProt Q13936); experiment: Inhibition of L-type calcium channel measured using […] kidney cells heterologically expressing alpha-1C subunit; format: functional, cell-based, HEK293; parameters: ca sol conc 0 mM, temp 21-24 C
assay_endpoint: IC50

Give recorded IC50 with Voltage-dependent L-type calcium channel subunit alpha-1C (Homo sapiens, UniProt Q13936) for the following compound: "C[C@]12CC[C@H]3[C@@H](CCC4=CC(=O)CC[C@@]43C)[C@@H]1CC[C@@H]2O"
38.4 nM

----------
biological target: Voltage-dependent L-type calcium channel subunit alpha-1C (Cavia porcellus, UniProt O35505); experiment: Inhibition of L-type calcium channel measured using whole-cell patch clamp in guinea pig ventricular myocytes; format: functional, cell-based, Heart, Ventricular myocyte; design: ca sol conc 1.8 mM, temp 36 C
assay_endpoint: pIC50
Answers are plain numbers, as −log10 of the molar value.

compound | assay_endpoint | result
COC(=O)C1=C(C)NC(C)=C(C(=O)OCC(C)C)C1c1ccccc1[N+](=O)[O-] (configuration not stated) | pIC50 | 7.10

// query pIC50 value for entry CCN(CC)CC#CCOC(=O)C(O)(c1ccccc1)C1CCCCC1 (configuration not stated)
4.79

----------
target: Voltage-dependent L-type calcium channel subunit alpha-1C (Rattus norvegicus); assay: Inhibition of L-type calcium channel measured using whole-cell patch clamp in rat ventricular myocytes; format: functional, cell-based, Heart, Ventricular myocyte; design: ca sol conc 1 mM, temp 20-24 C
Exercise: state measured IC50 for each of the compounds provided.

// known answers, use as guide
compound | IC50
CNCCCN1c2ccccc2CCc2ccccc21 | 11.7 µM
CN(C)CCC=C1c2ccccc2CCc2ccccc21 | 23.2 µM
CN(C)CCN1C(=O)c2ccccc2N(C)c2ccccc21 [DIBENZEPIN] | 364 µM
CN(C)CCCC1(c2ccc(F)cc2)OCc2cc(C#N)ccc21 (stereo not given) | 64.5 µM

With those in mind, consider the next compound.
// query IC50 value for entry "CN(C)CCCN1c2ccccc2CCc2ccc(Cl)cc21"
11.6 µM

----------
molecular target: Voltage-dependent L-type calcium channel subunit alpha-1C (Cavia porcellus); assay: Inhibition of L-type calcium channel measured using whole-cell patch clamp in guinea pig ventricular myocytes; format: functional, cell-based, Heart, Ventricular myocyte; set-up: ca sol conc 2.5 mM, temp room
assay_endpoint: IC50 (µM)
One number for each entry, in µM.

// query IC50 value for entry "O=c1c(-c2ccc(O)cc2)coc2cc(O)cc(O)c12"
20

// data source = ChEMBL document CHEMBL3436046
